target-or-test-system: T1, CRH (CT-Biotin) (human and mouse (same sequence), biotin on an added C-terminal K (CRH-K-Biotin))
T1 construct: also called Peptide 4 (CRH-Biotin)
T1 peptide: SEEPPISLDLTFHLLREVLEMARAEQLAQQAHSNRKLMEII
assay-overview: ELISA, biotinylated CRH on streptavidin plate
# Lookup of reported EC50 keyed by entry
The response must be a number in nM with no trailing unit.

Worked cases, EC50 given:
* PR006147 (antibody, human IgG1, kappa, V domains shown, PTM-removal variant of PR004290) VH: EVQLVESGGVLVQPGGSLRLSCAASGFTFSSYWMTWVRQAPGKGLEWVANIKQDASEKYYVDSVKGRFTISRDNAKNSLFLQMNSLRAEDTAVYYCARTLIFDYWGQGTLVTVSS VL: DIVMTQSPLSLPVTPGEPASISCRSSQSLLHSTGYHSLEWYLQKPGQSPQLLIYLGSNRASGVPDRFSGSGSGTDFTLKISRVEAEDVGIYYCMQTLQTPITFGQGTRLEIKR | 0.027
* PR005658 (antibody, human IgG1, kappa, V domains shown, PTM-removal variant of PR004290) VH: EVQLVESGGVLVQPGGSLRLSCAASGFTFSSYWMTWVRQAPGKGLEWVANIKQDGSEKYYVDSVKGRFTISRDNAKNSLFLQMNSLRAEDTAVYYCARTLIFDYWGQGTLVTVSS VL: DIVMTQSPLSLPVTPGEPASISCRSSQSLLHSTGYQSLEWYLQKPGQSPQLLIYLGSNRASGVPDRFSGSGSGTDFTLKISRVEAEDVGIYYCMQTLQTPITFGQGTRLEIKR | 0.044
* PR006152 (antibody, human IgG1, kappa, V domains shown, PTM-removal variant of PR004290) VH: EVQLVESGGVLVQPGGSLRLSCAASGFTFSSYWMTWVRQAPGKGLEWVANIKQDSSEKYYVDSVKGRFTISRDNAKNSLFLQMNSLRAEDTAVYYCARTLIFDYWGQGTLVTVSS VL: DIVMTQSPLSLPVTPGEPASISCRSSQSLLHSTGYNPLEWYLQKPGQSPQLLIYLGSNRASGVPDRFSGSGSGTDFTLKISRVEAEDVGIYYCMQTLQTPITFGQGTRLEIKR | 0.023
* PR006149 (antibody, human IgG1, kappa, V domains shown, PTM-removal variant of PR004290) VH: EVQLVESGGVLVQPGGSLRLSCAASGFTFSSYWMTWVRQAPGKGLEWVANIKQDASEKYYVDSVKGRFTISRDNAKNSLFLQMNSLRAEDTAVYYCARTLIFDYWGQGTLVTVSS VL: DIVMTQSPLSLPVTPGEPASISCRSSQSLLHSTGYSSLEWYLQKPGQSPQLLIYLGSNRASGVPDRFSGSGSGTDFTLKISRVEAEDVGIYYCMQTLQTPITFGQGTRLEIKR | 0.027
* PR006146 (antibody, human IgG1, kappa, V domains shown, PTM-removal variant of PR004290) VH: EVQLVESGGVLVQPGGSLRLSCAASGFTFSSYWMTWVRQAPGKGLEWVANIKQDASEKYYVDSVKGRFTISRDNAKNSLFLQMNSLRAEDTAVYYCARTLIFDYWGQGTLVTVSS VL: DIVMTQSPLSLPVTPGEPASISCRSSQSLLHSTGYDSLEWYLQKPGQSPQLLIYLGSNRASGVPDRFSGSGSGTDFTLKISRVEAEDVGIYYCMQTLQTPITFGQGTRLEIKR | 0.024

Alright, here's another binder for you.
Give reported EC50 value for PR005662 (antibody, human IgG1, kappa, V domains shown, PTM-removal variant of PR004290) VH: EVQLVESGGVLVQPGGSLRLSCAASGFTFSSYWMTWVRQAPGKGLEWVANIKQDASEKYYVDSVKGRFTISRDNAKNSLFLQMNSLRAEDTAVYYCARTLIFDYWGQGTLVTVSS VL: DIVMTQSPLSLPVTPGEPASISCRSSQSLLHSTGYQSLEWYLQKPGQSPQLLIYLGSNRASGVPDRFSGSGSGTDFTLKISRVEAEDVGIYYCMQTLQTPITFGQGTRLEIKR
0.052
